Below are molecules with their pIC50 as measured on Rho-associated protein kinase 2 (Homo sapiens, UniProt O75116).
Sequence (O75116 whole entry): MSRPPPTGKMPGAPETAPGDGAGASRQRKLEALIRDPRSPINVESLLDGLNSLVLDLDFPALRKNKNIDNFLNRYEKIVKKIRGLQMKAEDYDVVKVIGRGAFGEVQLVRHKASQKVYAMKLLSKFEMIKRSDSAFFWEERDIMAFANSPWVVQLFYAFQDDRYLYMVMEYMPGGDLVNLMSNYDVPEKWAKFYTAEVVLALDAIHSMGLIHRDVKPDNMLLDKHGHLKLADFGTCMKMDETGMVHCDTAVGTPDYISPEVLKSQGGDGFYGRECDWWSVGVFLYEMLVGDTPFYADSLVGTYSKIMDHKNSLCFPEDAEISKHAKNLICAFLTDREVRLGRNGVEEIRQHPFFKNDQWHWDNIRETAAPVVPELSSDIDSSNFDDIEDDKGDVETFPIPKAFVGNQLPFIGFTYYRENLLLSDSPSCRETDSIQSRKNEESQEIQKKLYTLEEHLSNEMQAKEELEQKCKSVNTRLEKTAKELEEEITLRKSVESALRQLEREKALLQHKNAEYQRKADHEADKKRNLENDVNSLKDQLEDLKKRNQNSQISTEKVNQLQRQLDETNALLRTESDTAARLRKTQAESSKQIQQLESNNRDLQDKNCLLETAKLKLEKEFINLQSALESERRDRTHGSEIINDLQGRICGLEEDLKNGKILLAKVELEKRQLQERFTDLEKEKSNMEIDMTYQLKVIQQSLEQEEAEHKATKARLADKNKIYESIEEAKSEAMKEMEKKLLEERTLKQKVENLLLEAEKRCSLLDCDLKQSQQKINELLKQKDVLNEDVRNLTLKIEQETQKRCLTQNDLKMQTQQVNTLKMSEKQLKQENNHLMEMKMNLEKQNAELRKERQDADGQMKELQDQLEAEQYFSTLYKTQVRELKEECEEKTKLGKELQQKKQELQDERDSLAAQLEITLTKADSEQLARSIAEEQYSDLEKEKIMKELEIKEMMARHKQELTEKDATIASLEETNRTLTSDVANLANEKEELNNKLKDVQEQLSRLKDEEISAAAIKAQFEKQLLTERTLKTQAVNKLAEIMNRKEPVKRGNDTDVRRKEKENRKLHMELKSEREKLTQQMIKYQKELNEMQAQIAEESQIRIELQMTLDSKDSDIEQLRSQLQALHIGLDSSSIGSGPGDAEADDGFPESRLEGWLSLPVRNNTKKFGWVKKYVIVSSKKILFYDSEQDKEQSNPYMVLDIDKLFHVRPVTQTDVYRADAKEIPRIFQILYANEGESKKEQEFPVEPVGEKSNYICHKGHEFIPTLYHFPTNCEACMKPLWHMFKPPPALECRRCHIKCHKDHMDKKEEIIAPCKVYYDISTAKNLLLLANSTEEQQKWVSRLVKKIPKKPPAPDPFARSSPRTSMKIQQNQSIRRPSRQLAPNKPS
pIC50: −log10 of the molar value.
READOUT NAME: pIC50

MOLECULE | SUBJECT OF TEST | RESULT NUMBER
C[C@H]1CN(C(=O)O[C@@H]2CO[C@H]3[C@@H]2OC[C@@H]3O[N+](=O)[O-])CCCN1S(=O)(=O)c1cccc2cncc(F)c12 | Rho-associated protein kinase 2 (Homo sapiens, UniProt O75116) | 7.71
C[C@H]1CN(C(=O)OCCCO[N+](=O)[O-])CCCN1S(=O)(=O)c1cccc2cncc(F)c12 | Rho-associated protein kinase 2 (Homo sapiens, UniProt O75116) | 7.60
C[C@H]1CNCCCN1S(=O)(=O)c1cccc2cncc(F)c12.Cl.O.O [RIPASUDIL HYDROCHLORIDE DIHYDRATE] | Rho-associated protein kinase 2 (Homo sapiens, UniProt O75116) | 7.67
